Every entry's value here was drawn from BindingDB's records for doi:10.7270/Q2ZP450S.

subject-of-test: UniProtKB P18031
Sequence (P18031 whole entry): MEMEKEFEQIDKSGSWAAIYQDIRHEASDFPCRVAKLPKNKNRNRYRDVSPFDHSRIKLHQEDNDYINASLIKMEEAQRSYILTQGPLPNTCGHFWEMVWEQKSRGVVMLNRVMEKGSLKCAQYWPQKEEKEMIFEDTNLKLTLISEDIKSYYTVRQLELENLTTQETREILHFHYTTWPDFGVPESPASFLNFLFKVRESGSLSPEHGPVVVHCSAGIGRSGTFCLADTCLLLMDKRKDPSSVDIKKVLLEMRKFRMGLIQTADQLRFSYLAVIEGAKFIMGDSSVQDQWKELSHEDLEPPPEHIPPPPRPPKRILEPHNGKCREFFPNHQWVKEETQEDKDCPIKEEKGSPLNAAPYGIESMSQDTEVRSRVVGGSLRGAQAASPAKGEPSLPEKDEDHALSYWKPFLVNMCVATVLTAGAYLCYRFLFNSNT
metric: pIC50
The read-out pIC50 is expressed as -log10 of concentration in moles per litre.

>  <smiles-code>
COc1ccc(-c2ccc(O)cc2)c(C(c2ccc(O)cc2)c2ccc(O)cc2)c1C#Cc1ccc(O)cc1

>  <subject-of-test>
UniProtKB P18031

>  <pIC50>
5.32

$$$$

Turning now to a further record.
query: Reported pIC50 for UniProtKB P18031, given COc1cc(C#Cc2c(CO)ccc(-c3ccc(O)cc3)c2C(=C2C=CC(=O)C=C2)c2ccc(O)cc2)ccc1O ?
result: 4.84
